Tested on: C. parvum
Test: Inhibition of C. parvum replication in infected HCT-8 cells, parasite quantification by qPCR
Format: cell-based, Cryptosporidium parvum (Iowa strain) in human HCT-8 cells
Details: Cryptosporidium parvum, HCT-8; 10 μM, added at start of infection (T0), 48 hpi, qPCR, mean ± SD (n = 3 wells); read-out: inhibition rate of C. parvum replication
Protocol: HCT-8 cell lines (Human ileocecal adenocarcinoma) were purchased from The European Collection of Authenticated Cell Cultures (ECACC) under catalogue number No 90032006) and maintained with regular subculturing in a growth medium consisting in a RPMI 1640 medium supplemented with 1 mM sodium pyruvate, 2 mM l-glutamine, 10 % (vol/vol) of heat-inactivated fetal calf serum, 100 U/mL of penicillin and 100 μg/mL of streptomycin. […]
READOUT NAME: inhibition at 10 µM (%)
Numeric answer only, unit % assumed.

These recorded examples may help you get a feel for the data.
CC(C)(NC(=O)Nc1ccc(Cl)c([N+](=O)[O-])c1)c1cccc(-c2ccco2)c1 64
CC(C)(NC(=O)Nc1ccc(Cl)c([N+](=O)[O-])c1)c1cccc(-c2nccn2Cc2ccccc2)c1 88.2
CC(=O)c1cccc(C(C)(C)Nc2c(Nc3ccc(Cl)c([N+](=O)[O-])c3)c(=O)c2=O)c1 87.7
CC(C)(NC(=O)Nc1ccc(Cl)c([N+](=O)[O-])c1)c1cccc(-c2cccnc2F)c1 83.4

Now examine the next entry.
Any idea what inhibition at 10 µM was measured for CC(C)(NC(=O)Nc1ccc(Cl)c([N+](=O)[O-])c1)c1cccc(-c2cccs2)c1 ?
86.6

----------
Test system: C. parvum
Experiment: Inhibition of C. parvum replication in infected HCT-8 cells, parasite quantification by qPCR
Assay type: cell-based, Cryptosporidium parvum (Iowa strain) in human HCT-8 cells
Conditions: 10 μM, added at T0, 48 hpi, qPCR
Procedure: HCT-8 cell lines (Human ileocecal adenocarcinoma) were purchased from The European Collection of Authenticated Cell Cultures (ECACC) under catalogue number No 90032006) and maintained with regular subculturing in a growth medium consisting in a RPMI 1640 medium supplemented with 1 mM sodium pyruvate, 2 mM l-glutamine, 10 % (vol/vol) of heat-inactivated fetal calf serum, 100 U/mL of penicillin and 100 μg/mL of streptomycin. […]
READOUT NAME: anti-cryptosporidial activity (in words)

CC(C)(Nc1c(Nc2ccc(Cl)c([N+](=O)[O-])c2)c(=O)c1=O)c1cccc(-c2cn[nH]c2)c1 low
CC(=O)c1cccc(C(C)(C)Nc2c(Nc3ccc(Cl)c([N+](=O)[O-])c3)c(=O)c2=O)c1 high
CC(C)(Nc1c(Nc2ccc(Cl)c([N+](=O)[O-])c2)c(=O)c1=O)c1cccc(-c2ccco2)c1 high

----------
test system: C. parvum; assay: Inhibition of C. parvum replication in infected HCT-8 cells, parasite quantification by qPCR; type: cell-based, Cryptosporidium parvum (Iowa strain) in human HCT-8 cells; details: Cryptosporidium parvum, HCT-8; 10 μM, added at start of infection (T0), 48 hpi, qPCR, mean ± SD (n = 3 wells); read-out: inhibition rate of C. parvum replication
Assign Yes to entries whose inhibition at 10 µM meets or exceeds 70%; assign No to the rest.

Examples with answers:
CCOC(=O)n1ccc(-c2cccc(C(C)(C)NC(=O)Nc3ccc(Cl)c([N+](=O)[O-])c3)c2)n1 Yes
CC(C)(NC(=O)Nc1ccc(Cl)c([N+](=O)[O-])c1)c1cccc(-c2cc[nH]n2)c1 Yes
CC(C)(NC(=O)Nc1ccc(Cl)c([N+](=O)[O-])c1)c1cccc(-c2nccs2)c1 Yes

Answer whether inhibition at 10 µM of CC(C)(NC(=O)Nc1ccc(Cl)c([N+](=O)[O-])c1)c1cccc(-c2cn[nH]c2)c1 is greater than or equal to 70%.
No

Answer whether inhibition at 10 µM of CCOc1ncccc1-c1cccc(C(C)(C)NC(=O)Nc2ccc(Cl)c([N+](=O)[O-])c2)c1 is greater than or equal to 70%.
Yes

Answer whether inhibition at 10 µM of CC(C)(NC(=O)Nc1ccc(Cl)c([N+](=O)[O-])c1)c1cccc(-c2cn(C(c3ccccc3)(c3ccccc3)c3ccccc3)cn2)c1 is greater than or equal to 70%.
No
